# Tested on: MALME-3M melanoma
# assay method text: NCI tumour cell line growth inhibition, 48 h
Answer each item with its documented GI50.

In: What GI50 value was documented for this compound, Fc1cccc(-n2ccc(-c3ccccc3)nc2=S)c1 ?
Out: 65.3 µM

In: Entry under review: NS(=O)(=O)CC1CC[CH-]CC1.[Cl-].[Cl-].[Cl-].[Cl-].[Cl-].[Sb+5].c1ccncc1 . Reported GI50?
Out: > 100 µM

In: Quick one: GI50 for CCc1ccc(C(=Nc2ccc(N(C)C(=O)CN3CCN(C)CC3)cc2)c2c(O)[nH]c3ccc(C(=O)OC)cc23)cc1 ?
Out: 0.516 µM

In: Name the reported GI50 value associated with the compound CO/N=C(\COc1ccc2oc(-c3ccccc3)cc(=O)c2c1)c1ccc(OC)cc1
Out: 24.8 µM

In: Would you kindly share the measured GI50 for COc1ccc2c(c1)C(=O)/C(=C/c1ccc([N+](=O)[O-])o1)O2 ?
Out: 1.61 µM

In: For the compound shown here, CC(=O)O[C@H]1[C@@H]2OC(=O)C(CSc3ccccc3)[C@@H]2C[C@H]2O[C@]2(C)CC/C=C(\C)CCC[C@@H]1C (some centres undefined) , give the reported GI50.
Out: 4.05 µM

In: What value of GI50 has been recorded for this entry: CCN(CC)C(=S)SCN1C(=O)c2ccccc2S1(=O)=O
Out: > 48.7 µM

In: Look up GI50: O=C1/C(=C/c2ccc(Cl)cc2)CCC/C1=C\c1ccc(Cl)cc1
Out: > 100 µM

In: Please look up its GI50: CCOC(=O)c1cc(-c2ccccc2)[nH]c1N/N=C/c1ccc(Cl)cc1
Out: > 100 µM

====

Answer each item with its documented TGI.
# Test system: SNB-78 CNS
# assay method text: NCI tumour cell line growth inhibition, 48 h

In: Record request: TGI value, item Clc1ccc(C[P+]2(c3ccccc3)CCCCC2)cc1
Out: > 100 µM

In: Quick one: TGI for COc1ccc2c3c(c(C(=O)c4ccccc4)oc13)CCC2 ?
Out: > 100 µM

In: # get_value(readout='TGI', item= Cn1c(N)nc(=O)c2c1N(C1OC(CO)C(O)C1O)CN2Cc1ccccc1 (stereo unspecified) )
Out: > 100 µM

In: Endpoint output: TGI of NC1=NN(c2ccccc2)C(=O)C1C(=O)C(=O)Nc1nccs1 (stereo unspecified) . Value?
Out: > 100 µM

In: I have this molecule here, CC1=C(O)/C(=C/C(C)CCC/C(C)=C/C=C/C(C)CCCc2ccoc2)OC1=O (stereo unspecified) , and I need its recorded TGI.
Out: > 100 µM

In: Endpoint output: TGI of Cc1ccc(C2COc3cc(O)c(O)cc3C2)cc1 (stereo unspecified) . Value?
Out: 221 µM

====

Give TGI for every item shown.
# System: SW-620 colon
# assay method text: NCI tumour cell line growth inhibition, 48 h
Where a SMILES comes first, the peptide text is derived from it. [ ]: non-standard residue; d: D form. ξ: configuration not given here. ξLac(3-iPr) = CC(C)CC(O)C(=O)O; NMeV = CN[CH](C(=O)O)C(C)C; NMeA = CN[CH](C)C(=O)O; βAla = NCCC(=O)O

In: # input compound: CCC(=O)Nc1ccc(C)c(-c2ccc(C(=O)NCC3CC3)cc2)c1 ; wanted: its TGI
Out: > 25 µM

In: Dear colleague, I am looking for the recorded TGI of the following compound: C=CCN1/C(=C2\SC(=S)N(c3ccc(C)cc3)C2=O)Sc2c1nc[nH]c2=O
Out: > 100 µM

In: What value of TGI has been recorded for this entry: Oc1cc(N2CCCC2)ccc1/C=N/N1C(=S)N(c2ccccc2)C(=Nc2ccccc2)C1=Nc1ccccc1
Out: > 100 µM

In: What does the record list as TGI for O=S1(=O)OCCOS(=O)(=O)C1Cc1cccc2ccccc12 ?
Out: > 100 µM

In: Query (compound): COc1ccc2c3c(c(C(=O)c4ccccc4)oc13)CCC2 ; field requested: TGI
Out: > 100 µM

In: Which TGI is listed for CC1=NN(c2nc(N)nc(C/C(N)=N/O)n2)C(C)(C)C1 ?
Out: > 100 µM

In: For the compound shown here, CSc1nc2c(c(N3CCOCC3)n1)C(O)n1c(nc3ccccc31)S2 (configuration not stated) , give the reported TGI.
Out: > 100 µM

In: Quick one: TGI for C=C1CC2CC(O)CC(C1)C2 (configuration not stated) ?
Out: > 100 µM

In: // lookup TGI for CN1CCN(c2ccc(NC(=O)c3cncnc3Nc3ccc(OCc4ccccn4)c(Cl)c3)cc2)CC1
Out: 4.63 µM

In: Fill blank: measured TGI of the compound CN(C)CCNc1c2ccccc2nc2oc3ccccc3c12 is ____.
Out: 15.1 µM

In: Quick check: TGI of C[C@]12CC[C@@H]3c4ccc(O)cc4CC[C@H]3[C@@H]1CC[C@@H]2OC(=O)CCc1ccccc1 ?
Out: 64.7 µM

In: Given the compound O=C(O)CCC(N=NNc1ccc(-c2nc3ccccc3[nH]2)cc1)C(=O)O (configuration not stated) , what is its reported TGI?
Out: > 100 µM

In: Dear colleague, I am looking for the recorded TGI of the following compound: COC(=O)C(Br)C1CCc2ccccc21 (configuration not stated)
Out: > 100 µM

In: Query: TGI; subject: CSC1=NNC(SC)=NN1
Out: 0.307 µM

In: Consider the compound O=C(c1ccccc1)c1nc2ccc(Cl)cc2c2c1CCCO2 and give its measured TGI.
Out: > 100 µM

In: Which value of TGI has been reported for COC(=O)C(C(=O)C(=O)Nc1cccc([N+](=O)[O-])c1)c1nc2ccc([N+](=O)[O-])cc2[nH]c1=O (configuration not stated) in the records?
Out: > 100 µM

In: Can you look up the measured TGI of CO/N=C(\COc1ccc2oc(-c3ccccc3)cc(=O)c2c1)c1ccc(OC)cc1 for me?
Out: > 100 µM

In: Please give the measured TGI for this compound: CCOC(=O)c1cc(-c2ccccc2)[nH]c1N/N=C/c1ccc(Cl)cc1
Out: > 100 µM

In: Recorded TGI for CC(=O)c1c(CO[N+](=O)[O-])n([O-])c2ccccc2[n+]1=O , please?
Out: > 100 µM

In: Which measured TGI value corresponds to CCN(CC)c1ccc(/C=C/C(=O)c2cc(C(C)(C)C)c(O)c(C(C)(C)C)c2)cc1 ?
Out: > 100 µM

In: Returns the measured TGI for the input compound. Input: C#CCN(N=O)C(=O)NCCCCC(NC(C)=O)C(=O)NCc1ccccc1 (configuration not stated)
Out: > 100 µM

In: Item under review: O=c1cc(N=Nc2ccc(Cl)c(Cl)c2)[nH]c(=O)[nH]1 . Reported TGI?
Out: 3.26 µM

In: I have this compound here, CCN(CCCl)c1cc(CN(C)C)cc(NC(=O)C23CCC(C(=O)Nc4cc(CN(C)C)cc(N(CC)CCCl)c4)(CC2)CC3)c1 , and I need its recorded TGI.
Out: 1.65 µM

In: TGI lookup needed for COc1cccc(Nc2nc(N)nc(N)c2N)c1 , thanks.
Out: 91.1 µM

In: Look up TGI: O=C(N/N=C/c1ccc(O)cc1O)c1cccc(Nc2ccnc(C(F)(F)F)c2)c1
Out: 21.4 µM

In: Suppose we examine the compound Cc1ccc(C(=O)/C=C/c2cccc([N+](=O)[O-])c2)cc1 ; what TGI value has been reported?
Out: 43.7 µM

In: Item Cc1ccc(OCC2OC(n3cnc4c(Cl)nc(Cl)nc43)CC2Oc2ccc(C)cc2)cc1 (configuration not stated) has what recorded TGI?
Out: > 100 µM

In: Bench note: what TGI did C/C(=N\NC(=S)SCc1ccccc1)c1ccccn1 show?
Out: 9.86 µM

In: Give the measured TGI of CSc1snc2sc3c(Cl)nnnc3c12 .
Out: 16.1 µM

In: Entry CCC(C)C1NC(=O)C2CCCN2C(=O)C(CC(C)C)OC(=O)CCNC(=O)C(C)N(C)C(=O)C(C(C)C)N(C)C1=O (configuration not stated) (cyclo([ξLac(3-iPr)]PI[NMeV][NMeA][βAla]); configuration not given here) has what TGI?
Out: > 100 µM

In: Which TGI reading was recorded for the compound CCN(CC)c1ccc2nc3ccc(N=Nc4c(O)ccc5ccccc45)cc3[n+](-c3ccccc3)c2c1 ?
Out: > 100 µM

In: Tell me the measured TGI of CC1CN(c2cc3c(cc2F)c(=O)c(C(=O)O)cn3-c2ccc(F)cn2)CC(C)N1 (configuration not stated) , please.
Out: > 100 µM

In: I am curious: what TGI value has been reported for Cn1c2ccccc2c(=O)c2cccc(C(=O)NCC(=O)O)c21 ?
Out: > 100 µM

In: Need TGI of O=c1[nH]c(=O)n(C2CC(O)C(CO)O2)c2nc3ccc4cc5ccccc5cc4c3nc12 (configuration not stated) , thanks.
Out: > 100 µM

In: TGI lookup needed for COC(=O)C12OCC34C(CC5C(C)C6=CC(=O)OC6=CC5(C)C3C(O)C1O)OC(=O)C(O)C24 (configuration not stated) , thanks.
Out: 9.4 µM

In: Give the measured TGI of CC1=C(/C=C/C(C)=C/C=C/C(C)=C/C(=O)O)C(C)(C)CCC1 .
Out: 64.2 µM

In: Which TGI reading was recorded for the compound Cc1ccnc2[nH]c(-c3ccc(F)cc3)cc(=O)c12 ?
Out: > 100 µM

In: Look up TGI for this compound: C/C(O)=C(\C#N)C(=O)Nc1ccc(C(F)(F)F)cc1
Out: > 100 µM

In: Value lookup for TGI; key = CC(C(N)C(=O)NC(C(=O)O)C1OC(n2ccc(=O)[nH]c2=O)C(O)C1O)C(O)c1ccc(O)cn1 (configuration not stated)
Out: > 100 µM

In: Return reported TGI; argument: CC(C)(C)OC(=O)NCCNCCNc1ccccc1
Out: > 100 µM

In: // query TGI value for entry Cc1[nH]c(=O)[nH]c1C(=O)c1ccc(-n2ccnc2)cc1
Out: > 100 µM

In: What TGI value was documented for this compound, CCOC(=O)c1cc(Br)c(-c2cc(C)no2)[nH]1 ?
Out: > 100 µM
